Documented % inhibition of SMAD7 mRNA expression across a set of substances
System: human SMAD7 mRNA
assay: Antisense inhibition of human SMAD7 mRNA expression in Hep3B cells by 5-10-5 MOE gapmers, single concentration, electroporation, RT-PCR (Example 1, Study 1 and 2)
Assay type: cell-based
measurement-setup: electroporation with 15,000 nM antisense oligonucleotide (Study 2), 5-10-5 MOE gapmers targeting SEQ ID NO: 1 and 2
Experimental: Antisense oligonucleotides were designed to target human SMAD7 mRNA and were tested for their effects on SMAD7 mRNA expression in vitro. […] After a treatment period of approximately 24 hours, RNA was isolated from the cells and SMAD7 mRNA levels were measured by quantitative real-time PCR. […] SMAD7 mRNA levels were adjusted according to total RNA content, as measured by RIBOGREEN®. […]
Strand notation (5' to 3'): a small letter for the sugar, then the base; units joined by * are phosphorothioate-linked, units joined directly phosphodiester-linked; [ ] holds rarer units or linkages, { } end groups; capitals alone tell only the bases. e = 2'-O-(2-methoxyethyl) (MOE); [5mC] = 5-methylcytosine; d = 2'-deoxy (DNA)
Hi, when you answer, please include the unit after the number. Thanks!

Example entries and their recorded answers appear below.
771609 (antisense eA*eT*eG*eT*e[5mC]*dA*d[5mC]*d[5mC]*dA*dG*dG*dG*d[5mC]*dA*dG*eG*e[5mC]*eA*eG*eG) [compound 771609] ... 47%
771650 (antisense eG*eA*eA*eG*eT*dA*dT*d[5mC]*dA*dT*dA*d[5mC]*dG*dA*dG*eT*eG*eT*eA*eT) [compound 771650] ... 24%
771682 (antisense eT*eG*eT*eT*eA*dT*dT*dT*dG*d[5mC]*dA*dT*dT*dT*dA*eT*eA*eT*eT*eA) [compound 771682] ... 18%
771681 (antisense eT*eT*eT*eG*e[5mC]*dA*dT*dT*dT*dA*dT*dA*dT*dT*dA*eA*eA*eG*e[5mC]*eA) [compound 771681] ... 0%

Lab note: next substance to report on.
Query :: Give the observed % inhibition of SMAD7 mRNA expression of 771649 (antisense eA*eA*eG*eT*eA*dT*d[5mC]*dA*dT*dA*d[5mC]*dG*dA*dG*dT*eG*eT*eA*eT*eG) [compound 771649] for human SMAD7 mRNA.
Result :: 0%

* * *

Tested on: human SMAD7 mRNA
assay: Dose-dependent inhibition of human SMAD7 mRNA expression in Hep3B cells (Example 3, Study 1 and 2)
Type: cell-based
measurement-setup: 20000.0 nM, electroporation, approximately 16 hours, Study 2
Method: The antisense oligonucleotides were tested in a series of experiments that had similar culture conditions as described below. Cells were plated at a density of 20,000 cells per well and transfected using electroporation with 0.31 μM, 1.25 μM, 5.00 μM, or 20.00 μM concentrations of antisense oligonucleotide, as specified in the Tables below. […] After a treatment period of approximately 16 hours, RNA was isolated from the cells and SMAD7 mRNA levels were measured by quantitative real-time PCR. […]
Strand notation (5' to 3'): a small letter for the sugar, then the base; units joined by * are phosphorothioate-linked, units joined directly phosphodiester-linked; [ ] holds rarer units or linkages, { } end groups; capitals alone tell only the bases. k = constrained ethyl (cEt); [5mC] = 5-methylcytosine; d = 2'-deoxy (DNA)
Tick Condition met if % inhibition of SMAD7 mRNA expression is 70% or greater. Tick Condition not met if % inhibition of SMAD7 mRNA expression is less than 70%.

Look over these answered cases.
798696 (antisense kT*k[5mC]*k[5mC]*d[5mC]*d[5mC]*d[5mC]*dT*dG*d[5mC]*dG*d[5mC]*d[5mC]*d[5mC]*kT*k[5mC]*k[5mC]) [compound 798696] ... Condition not met
799667 (antisense kA*k[5mC]*kA*dG*dA*dT*dG*d[5mC]*d[5mC]*dA*dG*d[5mC]*dA*kA*kG*kG) [compound 799667] ... Condition not met
799605 (k[5mC]*k[5mC]*kA*dA*dT*dA*dA*dA*dG*dT*dT*d[5mC]*d[5mC]*k[5mC]*kT*kT; antisense) [compound 799605] ... Condition met
799791 (kG*kG*kG*dA*dG*dA*d[5mC]*d[5mC]*dT*dA*d[5mC]*d[5mC]*dT*k[5mC]*kT*kG; antisense) [compound 799791] ... Condition not met
799565 (kA*kG*kT*dA*dA*dA*d[5mC]*dA*dA*dT*dA*d[5mC]*d[5mC]*k[5mC]*kT*k[5mC]; antisense) [compound 799565] ... Condition met

Attention now shifts to the item below.
Query :: Given 772568 (antisense kA*kG*k[5mC]*d[5mC]*dT*d[5mC]*dT*dT*dG*dA*d[5mC]*dT*dT*k[5mC]*k[5mC]*kG) [compound 772568] , state whether its % inhibition of SMAD7 mRNA expression is at least 70%.
Result :: Condition met
